target: D-alanyl-D-alanine carboxypeptidase DacA (Geobacillus stearothermophilus); assay: Inhibition of Bacillus stearothermophilus DD-carboxypeptidase using UDP-N-acetylmuramyl-L-alanyl-meso-diaminopimeloyl-D-alanyl-D-alanine as substrate at 10 to 100 ug/ml
Calls of active or inactive are those of the source. The rule behind the calls is not given here.
RECORDED_ENDPOINT: inhibition

Here is how some compounds turned out for inhibition.
> print(dat)
                               input.smiles  data.value
1                       COC(=O)CCCCNC(=O)CI    inactive
2                O=C(CI)NCCCC(=O)OCc1ccccc1    inactive
3  C[C@@H](NC(=O)[C@H](CCCCN)NC(=O)CBr)C(=O)O.O=C(O)C(F)(F)F    inactive
4  CC(=O)NCCCC[C@H](NC(=O)CI)C(=O)N[C@H](C)C(=O)N[C@H](C)C(=O)O    inactive
5  C[C@@H](NC(=O)CBr)C(=O)N[C@H](C)C(=O)OC(C)(C)C    inactive

Any idea what its inhibition is? The compound is O=C(CI)NCC(=O)OCc1ccccc1
inactive
